- subjectOfTest: Lethal factor (Bacillus anthracis)
- experimentSummary: Lethal factor protease inhibitors, Bacillus anthracis, multiplex microsphere cleavage assay, validation set (AID 588461)
- reportedConditions: flow cytometry, at 10 µM, active compounds read high
quantity: inhibition (%)
# number only, unit % dropped from output

The following compounds have reported results that may help.
1. OC(CCCN1CCC(O)(c2ccc(Cl)cc2)CC1)c1ccc(F)cc1 (stereo unspecified)	-4.8
2. CC[N+]1(CC)CC2=Cc3ccccc3CC2C1 (stereo unspecified)	3
3. COP(=O)(OC)C(O)C(Cl)(Cl)Cl (stereo unspecified)	-2.9

Form field inhibition, entry COc1ccc(Cc2nc(-c3ccc(Br)cc3)no2)cc1 : -5.8

Form field inhibition, entry CCCCN1C[C@H](O)[C@@H](O)[C@H](O)[C@H]1CO : 0.7

Form field inhibition, entry O=C(CN1C(=O)C2CCc3[nH]c4ccccc4c3C2C1=O)N1CCCC1 (stereo unspecified) : 4.3

====

- subjectOfTest: Cell division control protein 42 homolog (Homo sapiens) (UniProt P60953)
- experimentSummary: activated mutant Cdc42 GTP-binding inhibitors, dose response, biochemical, multiplex bead flow cytometry, Bodipy-FL-GTP (AID 1333)
- reportedConditions: bead-based flow cytometry; series mostly up to 100 µM
Entries with a potency or affinity are not part of this list. Activity calls are given as the source filed them.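 Rule for the calls: active = fitted half-maximal concentration within the tested dose range, moderate curve steepness, a statistically real signal drop, and little compound fluorescence or tag-binding interference; inactive = the rest.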
quantity: outcome

The following compounds have reported results that may help.
1. CCOCCCn1c(N)c(C(=O)Nc2sc3c(c2C(=O)OC)CCCC3)c2nc3ccccc3nc21	inactive
2. CC(Oc1ccc(-c2ccccc2)cc1)C(=O)O (stereo not given)	inactive
3. CCOc1ccc(C2SCC(=O)Nc3c2c(C)nn3C2CCOC(C)(C)C2)cc1 (stereo not given)	inactive
4. CCOC(=O)c1c(NC(=O)c2c(N)n(CCCOC)c3nc4ccccc4nc23)sc2c1CCCC2	inactive
5. Cc1cc(C)cc(N2C(=O)NC(=O)/C(=C\C=C\c3ccco3)C2=O)c1	inactive
6. COc1ccc(-c2cc(=NCCCCCC(=O)O)c3cc(C)ccc3o2)cc1	inactive
7. CC1(C)CC(n2[nH]c(=O)c3c2NC(=O)CSC3c2ccccc2)CCO1 (stereo not given)	inactive
8. O=C(O)c1cn(Cc2ccc(Br)cc2)c2ccccc12	inactive

Form field outcome, entry O=c1[nH]c(=S)[nH]c(O)c1N=Nc1ccc(S(=O)(=O)N2CCc3ccccc32)cc1 : inactive

Form field outcome, entry Cc1ccccc1OCCCn1cc(C(=O)O)c2ccccc21 : inactive

====

- Tested on: Botulinum neurotoxin type F light chain protease (Clostridium botulinum)
- experimentSummary: Botulinum neurotoxin type F light chain protease inhibition, multiplex microsphere flow cytometry, validation set (AID 588459)
- reportedConditions: multiplex microsphere protease substrate cleavage assay, at 10 µM, active compounds read high
Reported inhibition values for the following compounds.
# number only, unit % dropped from output

The following compounds have reported results that may help.
1) C[C@]12CCC(=O)C=C1CC[C@@H]1[C@@H]2[C@@H](O)C[C@@]2(C)[C@H]1CC[C@]2(O)C(=O)COC(=O)CCC(=O)O	1.7
2) O=C(/C=C/c1ccc2c(c1)OCO2)c1ccccn1	-2.7
3) C#CCN1C(=O)C(O)(c2c(C)[nH]c3ccccc23)c2ccccc21 (stereo not drawn)	0.4
4) CCCCCCCC(=O)OCC(O)CO (stereo not drawn)	-6.1
5) COc1cc(C(=S)N(C)C)ccc1O	-3.2

Form field inhibition, entry COc1ccc2nc(S(=O)Cc3ncc(C)c(OC)c3C)[nH]c2c1 (stereo not drawn) : 4.3

Form field inhibition, entry CCOC(=O)N1CCc2[nH]c3ccc(C)cc3c2C1 : -1.2

Form field inhibition, entry O=C1C(Cc2c[nH]c3ccccc23)NC(=S)N1Cc1ccccc1 (stereo not drawn) : -0.2

Form field inhibition, entry Cc1cc(NS(=O)(=O)c2ccc(N)cc2)no1 : 0

Form field inhibition, entry CCCCOc1ccc(CC(=O)NO)cc1 : -1.6

Form field inhibition, entry N#C/C(=C\c1ccc(O)c(O)c1)C(=O)NCCCc1ccccc1 : 1.8

Form field inhibition, entry COc1ccccc1/C=C/C(=O)c1c2c(c(C)[nH]c1=O)CCCC2 : -1.3

====

- System: Botulinum neurotoxin type F light chain protease (Clostridium botulinum)
- experimentSummary: Botulinum neurotoxin type F light chain protease inhibition, multiplex microsphere flow cytometry, validation set (AID 588459)
- reportedConditions: multiplex microsphere protease substrate cleavage assay, at 10 µM, active compounds read high
quantity: inhibition (%)
# number only, unit % dropped from output

The following molecules have reported results that may help.
1. O=S(=O)(NCCCCCNS(=O)(=O)c1ccccc1)c1ccccc1	0.4
2. Clc1ccc(CCNc2ncnc3nc[nH]c23)cc1	4.5
3. CCc1oc2ccccc2c1C(=O)c1cc(Br)c(O)c(Br)c1	-6.8
4. Cc1ccsc1C1NC(=O)c2ccccc2N1 (stereo unspecified)	-6.7
5. COc1ccc2[nH]c3c(c2c1)CCNC3C1CC=C(C)CC1 (stereo unspecified)	-1.7
6. COCC(C)NC(=O)c1ccc(CN2CCc3ccccc3C2)cc1 (stereo unspecified)	5.2
7. CCCN(CCC)C(=O)C(CCC(=O)O)NC(=O)c1ccccc1 (stereo unspecified)	0.5
8. CCC(=O)Nc1ccc(C(=O)N2CCN(C(=O)c3ccco3)CC2)cc1	-2.6
9. O=C(CCCn1c(=O)oc2ccccc21)N1CCN(c2ccc(F)cc2)CC1	1.1
10. CCN1CCN(C(=S)c2ccc(OC)cc2)CC1	2.2

Form field inhibition, entry Cc1ccccc1C(=O)NNc1ncnc2c1cnn2C : 3.1

Form field inhibition, entry COc1ccc(-c2nc3ccccc3c(=O)o2)cc1 : 1.8

Form field inhibition, entry NC(=O)c1cccnc1 : 1.8

Form field inhibition, entry O=C1CCCC2=C1C(c1cccnc1)Nc1ccccc1N2 (stereo unspecified) : 0.4

Form field inhibition, entry Cc1cccc(C)c1NC(=O)C1CCCCN1C (stereo unspecified) : -3.1

Form field inhibition, entry COc1ccc(C2C3C(C)=NN=C3CC(C)(O)C2C(C)=O)cc1 (stereo unspecified) : -2

Form field inhibition, entry C[C@]12CC[C@@H]3c4ccc(O)cc4CC[C@H]3[C@@H]1C[C@@H](O)[C@@H]2O[C@@H]1O[C@H](C(=O)O)[C@@H](O)[C@H](O)[C@H]1O : -1.9

Form field inhibition, entry CCN1/C(=C/C=C/C=C/c2sc3ccccc3[n+]2CC)Sc2ccccc21 : -1

Form field inhibition, entry C(=C\c1ccccc1)/CN1CCN(C(c2ccccc2)c2ccccc2)CC1 : -0.8

Form field inhibition, entry Cc1cccc(CN2CCN(C(c3ccccc3)c3ccc(Cl)cc3)CC2)c1 (stereo unspecified) : -0.2

Form field inhibition, entry O=C(CNC(=O)OCc1ccccc1)NC1CCCCCC1 : -1

Form field inhibition, entry Cc1cccc(C2=N/C(=C\c3cccnc3)C(=O)O2)c1 : -1.1

Form field inhibition, entry Cc1ncoc1C(=O)N1CCCC(C(=O)c2ccc(-c3ccccc3)c(F)c2)C1 (stereo unspecified) : -2.3

Form field inhibition, entry CC1(C)CC(=O)C(C2=NC(C)(C)Cc3ccccc32)=C(O)C1 : 0

====

- subjectOfTest: Lethal factor (Bacillus anthracis) (UniProt P15917)
- experimentSummary: Lethal factor protease inhibitors, Bacillus anthracis, multiplex microsphere cleavage assay, validation set (AID 588461)
- reportedConditions: flow cytometry, at 10 µM, active compounds read high
Activity calls are given as the source filed them. How the calls were made is not given here.
quantity: inhibition

Form field inhibition, entry COc1ccc(-c2c3c(=O)n(C)c(=O)n(C)c3cn2C2CCCCC2)cc1 : -3.1% (inactive)

Form field inhibition, entry O=C(Oc1ccccc1)Oc1ccc2c(c1)oc(=O)c1ccccc12 : 0.9% (inactive)

Form field inhibition, entry Cc1ccccc1C(=O)NNc1ncnc2c1cnn2C : 1.7% (inactive)

Form field inhibition, entry C=C1CC[C@@]2(O)[C@H]3Cc4ccc(O)c5c4[C@@]2(CCN3CC2CC2)[C@H]1O5 : 8.1% (inactive)

====

- subjectOfTest: Botulinum neurotoxin type A (Clostridium botulinum) (UniProt P0DPI0)
- experimentSummary: BoNT/A light chain protease inhibitors, biochemical, multiplex microsphere flow cytometry, validation set (AID 588460)
- reportedConditions: at 10 µM, active compounds read high
quantity: inhibition (%)
# number only, unit % dropped from output

The following molecules have reported results that may help.
1. O=C(NCCC(c1ccccc1)c1ccco1)c1cccs1 (stereo not given)	-2.7
2. O=C(CN1C(=O)c2ccccc2S1(=O)=O)Nc1ccccc1	0.2
3. CC1CC(OC(=O)C(O)c2ccccc2)CC(C)(C)N1C (stereo not given)	-1.7

Value (inhibition, Botulinum neurotoxin type A (Clostridium botulinum) (UniProt P0DPI0)) for record COc1ccc(CCNC(=O)c2c(O)c3c([nH]c2=O)CCCC3)cc1 = 0.3

Value (inhibition, Botulinum neurotoxin type A (Clostridium botulinum) (UniProt P0DPI0)) for record CCOc1ccc(C(=O)NC(C)C2COc3ccccc3O2)cc1 (stereo not given) = -0.6

Value (inhibition, Botulinum neurotoxin type A (Clostridium botulinum) (UniProt P0DPI0)) for record CCOCCCNCc1cn(-c2ccc(F)cc2F)nc1-c1ccccc1C = -1.9

Value (inhibition, Botulinum neurotoxin type A (Clostridium botulinum) (UniProt P0DPI0)) for record COC(=O)C1=C(C)N(C)C(=S)NC1c1ccc(Cl)cc1 (stereo not given) = -0.5

Value (inhibition, Botulinum neurotoxin type A (Clostridium botulinum) (UniProt P0DPI0)) for record Cc1ccc2nc(N=C(N)N)nc(C)c2c1 = -0.2

Value (inhibition, Botulinum neurotoxin type A (Clostridium botulinum) (UniProt P0DPI0)) for record O=C(NC1CCCCC1)c1cc2nc(-c3ccco3)cc(C(F)(F)F)n2n1 = 1.2

Value (inhibition, Botulinum neurotoxin type A (Clostridium botulinum) (UniProt P0DPI0)) for record CC(NCCc1ccc(O)cc1)C(O)c1ccc(O)cc1 (stereo not given) = -0.5

Value (inhibition, Botulinum neurotoxin type A (Clostridium botulinum) (UniProt P0DPI0)) for record Cc1[nH]c2ccccc2c1C(=O)CN1CCCC1 = 0.2

Value (inhibition, Botulinum neurotoxin type A (Clostridium botulinum) (UniProt P0DPI0)) for record NC(=O)c1ncn([C@@H]2O[C@H](CO)[C@@H](O)[C@H]2O)c1O = -1.9

Value (inhibition, Botulinum neurotoxin type A (Clostridium botulinum) (UniProt P0DPI0)) for record CNCCC(Oc1ccc(C(F)(F)F)cc1)c1ccccc1 (stereo not given) = 0.6

Value (inhibition, Botulinum neurotoxin type A (Clostridium botulinum) (UniProt P0DPI0)) for record CCc1ccc2oc(=O)cc(CN3CCC(C)CC3)c2c1 = 0.8

Value (inhibition, Botulinum neurotoxin type A (Clostridium botulinum) (UniProt P0DPI0)) for record CCC(C)NCCOCCOc1ccc(Cl)cc1Br (stereo not given) = 0.2

Value (inhibition, Botulinum neurotoxin type A (Clostridium botulinum) (UniProt P0DPI0)) for record COc1ccc(O)c(C2=Nc3ccccc3N=C(c3ccccc3)C2)c1 = 0.8

Value (inhibition, Botulinum neurotoxin type A (Clostridium botulinum) (UniProt P0DPI0)) for record COc1cc(C(=O)NCCc2c[nH]c3ccccc23)ccc1OCc1c(C)noc1C = -1.7

Value (inhibition, Botulinum neurotoxin type A (Clostridium botulinum) (UniProt P0DPI0)) for record CN(C(=O)C(Cl)Cl)c1ccc(OC(=O)c2ccco2)cc1 = 0.7

Value (inhibition, Botulinum neurotoxin type A (Clostridium botulinum) (UniProt P0DPI0)) for record CCN(Cc1cnn(C)c1)Cc1nc(C(c2ccccc2)c2ccccc2)no1 = -2.2
